system: muMax20 (Max(13-93) K31hArg/K57hArg, M65Nle); assay: PBM 8-mer E-score (E-score (rank enrichment, -0.5 to 0.5)); higher = stronger preferential binding
Over roughly 33,000 sequences, “E-score (rank enrichment, -0.5 to 0.5)” has its median near -0.0068; the highest 2% begin near 0.24. The full list was thinned out, with the highest values kept by preference.
readoutName: PBM 8-mer E-score
Numbers only.

Field: example entries. Status: answers known.
| residues | PBM 8-mer E-score |
| --- | --- |
| GCAAATCA | -0.0323 |
| CCTCCGGC | -0.116 |
| ACTTGATC | -0.00466 |
| GTTTTGTA | 0.254 |
| ACAAAAAT | 0.241 |

Need PBM 8-mer E-score for each of these sequences.
1. ACAAATCA
2. AAAAAAAT
3. CGCACTAG

Found:
[0.237, 0.168, -0.0251]

====

tested on: muMax20 (Max(13-93) K31hArg/K57hArg, M65Nle); experiment: PBM 8-mer E-score (E-score (rank enrichment, -0.5 to 0.5)); higher = stronger preferential binding
Over roughly 33,000 sequences, “E-score (rank enrichment, -0.5 to 0.5)” has its median near -0.0068; the highest 2% begin near 0.24. What follows is part of a selection rich in the highest values, with near analogues and random picks from the rest.
Where PBM 8-mer E-score equals or exceeds 0.1, the correct label is yes; where it does not, the label is no.

Would you please look over these solved cases?
| residues | systemName | class |
| --- | --- | --- |
| GGGCAAAA | muMax20 (Max(13-93) K31hArg/K57hArg, M65Nle) | no |
| ACACAAAG | muMax20 (Max(13-93) K31hArg/K57hArg, M65Nle) | yes |
| CCGTCGTC | muMax20 (Max(13-93) K31hArg/K57hArg, M65Nle) | no |
| ATACAACC | muMax20 (Max(13-93) K31hArg/K57hArg, M65Nle) | no |
| GACCACGC | muMax20 (Max(13-93) K31hArg/K57hArg, M65Nle) | yes |

Lookup: Determine whether this sequence has PBM 8-mer E-score no lower than 0.1: ACACAAAC
Found: yes

Lookup: Please tell me: is the sequence ATACAAAG at or over 0.1 in terms of PBM 8-mer E-score?
Found: yes

Lookup: Does the reported PBM 8-mer E-score for TTACAAAA fall at or above the 0.1 mark?
Found: yes

Lookup: Does the reported PBM 8-mer E-score for CCGAAAAG fall at or above the 0.1 mark?
Found: no

Lookup: Is reported PBM 8-mer E-score greater than or equal to 0.1 here: AACCTTAT
Found: no

====

tested on: muMax20 (Max(13-93) K31hArg/K57hArg, M65Nle); test: PBM 8-mer E-score (E-score (rank enrichment, -0.5 to 0.5)); higher = stronger preferential binding
Over roughly 33,000 sequences, “E-score (rank enrichment, -0.5 to 0.5)” has its median near -0.0068; the highest 2% begin near 0.24. The entries come from a sample that favours the highest values as a whole.
Note to self: class labels come from recorded PBM 8-mer E-score, ranges listed here: low bracket (below 0.1), middle bracket (0.1 to below 0.2), high bracket (0.2 or more)

Please review the entries below; each comes with its answer.
| residues | systemName | class |
| --- | --- | --- |
| AAAGACGA | muMax20 (Max(13-93) K31hArg/K57hArg, M65Nle) | high bracket |
| CATTGACC | muMax20 (Max(13-93) K31hArg/K57hArg, M65Nle) | middle bracket |
| GAGCCCTA | muMax20 (Max(13-93) K31hArg/K57hArg, M65Nle) | low bracket |
| ACACATAT | muMax20 (Max(13-93) K31hArg/K57hArg, M65Nle) | middle bracket |
| ACGTGAGG | muMax20 (Max(13-93) K31hArg/K57hArg, M65Nle) | middle bracket |
| ACGTGAGT | muMax20 (Max(13-93) K31hArg/K57hArg, M65Nle) | high bracket |

Lookup: Band of AAAGACGG ?
Found: low bracket

Lookup: For ACGTGAAA , which PBM 8-mer E-score bin applies?
Found: high bracket

Lookup: Field: class (PBM 8-mer E-score) — entry: AAAAACGT
Found: high bracket

Lookup: Please indicate the class for AAAAACGA based on its PBM 8-mer E-score.
Found: high bracket

====

Provide the reported PBM 8-mer E-score of each item.
system: muMax20 (Max(13-93) K31hArg/K57hArg, M65Nle); experiment: PBM 8-mer E-score (E-score (rank enrichment, -0.5 to 0.5)); higher = stronger preferential binding
The full ranking holds about 33,000 sequences; the median of “E-score (rank enrichment, -0.5 to 0.5)” is about -0.0068, and the highest 2% start at about 0.24. For the sample, the highest values were picked, then their nearest neighbours and some sequences at random.
One number for each entry.

Take a look at these entries with their results.
| residues | PBM 8-mer E-score |
| --- | --- |
| GAATCACA | -0.0241 |
| ATTAATCA | 0.253 |
| ATTAATTC | 0.219 |

Here are 4 sequences. What values of PBM 8-mer E-score were reported for them?
1. ACGTCTGA
2. AATATTTA
3. ATCTCAAT
4. GTTAGAAC

Found:
1. -0.0769
2. 0.287
3. 0.0437
4. -0.0507

List reported PBM 8-mer E-score for each of these sequences:
1. ATAATTTA
2. AAACGGAA

Found:
1: 0.244; 2: -0.0336

Quick batch: PBM 8-mer E-score for everything below.
1. TAATCACA
2. CAATCACA

Found:
0.264
0.122

Hey, can you go through the list below and give me PBM 8-mer E-score for every item?
1. CTTATTTC
2. CACATACC
3. ATTATTTC
4. AGATTCGG
5. AATCGGAT

Found:
[0.24, -0.0465, 0.186, -0.118, -0.181]

====

test system: muMax20 (Max(13-93) K31hArg/K57hArg, M65Nle); assay: PBM 8-mer E-score (E-score (rank enrichment, -0.5 to 0.5)); higher = stronger preferential binding
Over roughly 33,000 sequences, “E-score (rank enrichment, -0.5 to 0.5)” has its median near -0.0068; the highest 2% begin near 0.24. The full list was thinned out, with the highest values kept by preference.
Dear colleague, classification is by PBM 8-mer E-score, with ranges listed here: LOW (below 0.02), MID (0.02 to below 0.1), HIGH (0.1 or more)

Use these answered entries as a reference point.
| residues | systemName | class |
| --- | --- | --- |
| ATGCATGA | muMax20 (Max(13-93) K31hArg/K57hArg, M65Nle) | HIGH |
| ATACCTAC | muMax20 (Max(13-93) K31hArg/K57hArg, M65Nle) | HIGH |
| GTCCGATA | muMax20 (Max(13-93) K31hArg/K57hArg, M65Nle) | LOW |
| GGCCACTA | muMax20 (Max(13-93) K31hArg/K57hArg, M65Nle) | MID |
| ATGCATCG | muMax20 (Max(13-93) K31hArg/K57hArg, M65Nle) | LOW |
| CCTGCCCC | muMax20 (Max(13-93) K31hArg/K57hArg, M65Nle) | LOW |
| GTGCATCA | muMax20 (Max(13-93) K31hArg/K57hArg, M65Nle) | HIGH |
| AATTCTTA | muMax20 (Max(13-93) K31hArg/K57hArg, M65Nle) | MID |

Lookup: Would you mind sorting GATGTACC into the appropriate category?
Found: MID

====

I'd appreciate it if you could supply PBM 8-mer E-score values for the items below.
system: muMax20 (Max(13-93) K31hArg/K57hArg, M65Nle); experiment: PBM 8-mer E-score (E-score (rank enrichment, -0.5 to 0.5)); higher = stronger preferential binding
In all, about 33,000 sequences were measured (“E-score (rank enrichment, -0.5 to 0.5)”: median about -0.0068, highest 2% from about 0.24 on). What follows is part of a selection rich in the highest values, with near analogues and random picks from the rest.
Numbers only.

| residues | PBM 8-mer E-score |
| --- | --- |
| AATAATGT | 0.258 |
| ACCATATA | 0.278 |
| AATGGTAT | 0.213 |

Below is a list of sequences. For each, state its recorded PBM 8-mer E-score.
1. AAGTTCTC
2. GATAATGA
3. AACATATG

Found:
1: -0.179; 2: -0.00519; 3: 0.136

Please give PBM 8-mer E-score for each item listed below.
1. CGTATACA
2. CGTCCTGC
3. CGAAGCTA
4. TGTATACA
5. TCCCGACA

Found:
1. 0.216
2. -0.0779
3. -0.176
4. 0.335
5. -0.0715
